test: Zeta-potential measurement; assay type: physicochemical
Item-by-item account of Zeta category ( +1 = if > 4 mV;-1 = if < -4 mV; 0 = -4mV to 4 mV)
observable: Zeta category ( +1 = if > 4 mV;-1 = if < -4 mV; 0 = -4mV to 4 mV)

substance	test result
CKFKQFF [CK15]	1 (+1 = if > 4 mV)
CHLHLQL [CN9]	-1 (-1 = if < -4 mV)
RGECKFKFQF [CN16]	1 (+1 = if > 4 mV)
CKAKAQANM [BL9]	-1 (-1 = if < -4 mV)
CEIEIQINMWQ [TM143]	-1 (-1 = if < -4 mV)
CEFEFQFNMWQ [TM140]	-1 (-1 = if < -4 mV)
HHHHKAKAKAKAWWWW [TM8]	1 (+1 = if > 4 mV)
KLKLQLL [TG4 / (KM2)]	-1 (-1 = if < -4 mV)
KIKQII [msis21]	-1 (-1 = if < -4 mV)
RGDCKIKIQINM [TM45]	1 (+1 = if > 4 mV)
MKFKFQF [DF5 / CK16]	0 (0 = -4mV to 4 mV)
QCKFKQFFNMWQ [CK10]	1 (+1 = if > 4 mV)
KAKQAANMWQ [JG6]	-1 (-1 = if < -4 mV)
CKIKIQIII [AR0 / F19]	1 (+1 = if > 4 mV)
CKIKIQINMWQ [MG1]	1 (+1 = if > 4 mV)
CKIKIQINMW [TM86]	1 (+1 = if > 4 mV)
HHHHKAKAKAKAYYYY [TM10]	1 (+1 = if > 4 mV)
HHHHKIKIQINMYYYY [TM16]	1 (+1 = if > 4 mV)
RGDKIKIQIC [MG7/CN1]	1 (+1 = if > 4 mV)
RGDKIKIQINM [MG8a / CN17]	1 (+1 = if > 4 mV)
QCKFKFQF [CK9]	1 (+1 = if > 4 mV)
HIHIQIC [CN12]	0 (0 = -4mV to 4 mV)
CKWKWQW [KB4]	1 (+1 = if > 4 mV)
EIEIQINM [TM95 / (TM75)]	-1 (-1 = if < -4 mV)
KIKIKIKIWWWW [TM12]	1 (+1 = if > 4 mV)
KIKIKIKIWW [TM21]	1 (+1 = if > 4 mV)
KIKIQINMWWQ [VH11]	1 (+1 = if > 4 mV)
CKFKFQFNMW [KB14]	1 (+1 = if > 4 mV)
KFKQFFINMWQ [VH14]	1 (+1 = if > 4 mV)
QCKFKFQFNM [CK8]	1 (+1 = if > 4 mV)
EIEIQINMWQ [VH8]	-1 (-1 = if < -4 mV)
CKIKQIINMWQ [MG5a / CK17]	1 (+1 = if > 4 mV)
CKFKFQFNMWQ [BL2]	1 (+1 = if > 4 mV)
CEIEIQINM [TM144]	-1 (-1 = if < -4 mV)
CRFRFQF [CN10]	0 (0 = -4mV to 4 mV)

###

format: physicochemical; parameters: key: 1 = fibrils present; 0 non-fibrillar structures; details: TEM; 1 = fibrils present, 0 = non-fibrillar structures
substances and their reported Fibril
observable: Fibril

substance	test result
KVKGVGK	0
CKFKFQFNMW	1
MKFKFQF	1
KFKFKFQF	1
EIEIEIEI	1
EIKIQINM	1
RGDCKIKIQINM	1
CKAKAQA	0
KFKFQFNM	1
CHLHLQL	0
KIKIQINAWQ	1
HHHHKAKAKAKAWWWW	0
KIKQIIN	0
KIKIKIKIWWWW	0
KFKFQFF	1
CKFKQFFNMWQ	1
QCKFKFQF	1
CKIKIQIRGD	1
CEIEIQINM	1
KYKYQY	0
QCKAKAQA	0
KIKIKIKIYYYY	0
HHHHKAKAKAKAYYYY	0
QCKIKQIINM	1
CKIKQIINM	1
KIKIQINMWWWQ	0
RGDKIKIQINMWQ	1
CKWKWQW	1
RGDKIKIQINM	1
KIKIQINMWQ	1
NMWQKIKIQI	1
HLHLPLL	0
RGDSKIKIQIC	1
KIKIKIQINMWQ	1
EIEIQINMWQ	0
CEIEIQINMWQ	1
CKIKIQI	1
CKIKIQINM	1
SISISRRI	0
ILKNLSRSRKIKIQINMWQ	1
KIKIQINM	1
KIKIQINMWQRGD	0
KVKVKVQV	0
TKTLTKTL	0
CEFEFQF	1
KIKIQII	1
HHHHKIKIKIKIYYYY	0
QCKIKIQINM	1
MKIKIQINMWQ	1
KLKQLL	0
KIKIQIW	1
HHHHKIKIKIKIWWWW	0
CSISIQINM	1
CKAKAQANM	0
KWKWQW	0
HHHHEIEIEIEI	0
KIKIQINMW	1
QCKIKIQI	1
CETMYDKILKNLSRSR	0
RGECKFKFQF	1
KIKIQIC	1
KFKFQFN	1
KFKFQFW	1
QCKFKQFF	1
KIKIQINMWA	1
KKFQKKFQ	0
KIKIQIN	1
KIKIQIMQWN	1
KYKGAIIGNIK	0
KLKLKLQL	1
QCKFKQFFNM	1
KFKFQFNMW	1
RGEKIKIQINM	1
FKFDKFKFDK	0
